experiment: PET hydrolysis, aromatic products released after 48 h (umol product/mg enzyme); higher = more PET depolymerization activity; conditions: substrate: aFilm; 60 °C; pH 8.5
MEASURED_PROPERTY: PET hydrolysis

INPUT_SEQUENCE	MEASURED_PROPERTY	TEST_VALUE
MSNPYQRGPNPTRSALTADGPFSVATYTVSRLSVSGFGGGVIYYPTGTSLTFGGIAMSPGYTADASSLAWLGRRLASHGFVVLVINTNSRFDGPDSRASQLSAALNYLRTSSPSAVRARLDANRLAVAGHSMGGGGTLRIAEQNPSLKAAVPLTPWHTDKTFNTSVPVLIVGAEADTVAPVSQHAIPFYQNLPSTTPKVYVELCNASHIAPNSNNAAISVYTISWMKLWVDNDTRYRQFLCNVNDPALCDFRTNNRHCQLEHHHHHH [LCC-ICCG]	PET hydrolysis	584
AGFERGPDPSTSTLDAARGPFAVAEERVYSWRASGFGGGDIYYPTTTSEGTFGVVAVAPGYTAGRSSMAWLASRIASHGFVVINIDTLTRSDQPASRGRQLLAALDHVTSSSGVRDRVDASRQAVVGHSMGGGGALEAASSRPALQAAVPLTPWNLTKRWSSLQVPTFIVGAENDSVASVRTHAEPFYESLPAALPKAYLELNNASHFAPNTTNSTIGRYTVAWLKRYVDDDLRYSQFLCPPPPPSSAIEEFRATC [DP087]	PET hydrolysis	< 3
ANPYERGPDPTLASVEATSGTFAYASLSVSSGNGFGGGTIYYPTSTTDGTFAGIVTCPGFTNSGSSMAWFGKVLASQGFVTLVMNPKSNLDFPDARATQMLAALDWLTNSSSVKTRIDATRLGVLGQSMGGGATLKASKTRPSLKASFATAPYNSDKDWSTNTVPQFLFGMQNDTTAAVTNHALKFYNSLPATTPKIYAELRGAGHSTATSPNTSIRRYAVSFMKRNLDNDTRYSQFLCPGPTITSSSPLSAFMSNCLF [DP080]	PET hydrolysis	< 3

====

The following sequences are shown together with reported PET hydrolysis values.
experiment: PET hydrolysis, aromatic products released after 48 h (umol product/mg enzyme); higher = more PET depolymerization activity; settings: substrate: cryPow; 40 °C; pH 5.5

INPUT_SEQUENCE	PET hydrolysis
ASPYQRGPNPTAASIAATTGPFAIASITVPRGNGFGGGVIYYPTSTSQGTFGGIAISPGLNGTWSGISWLGPRLASQGFVVFGIETNNLNDSPTSRGTQLLAALDYLTQRSSVRSRLDANRLAVMGHSMGGGGALDAALRRPTLKATIGNAPHLPSGSLANDRVPTLIYAMQNDTLVTPARLTSLYNTIPAATERAYIEVTGAGHNYIGQPSTTLARTMIPWLKIFIDSDTRYAPFLCPLNDRSGIRQYRNSCPLI [ESM128]	43
AENPYQRGPDPTLAALAASAGPYPIMETVVGSAEVTNFGGASIYYPAGTADGTFGGVAVTPGFLGPRSTMEWVARRVASHGFVVINIDTLERNDTPPLRARQMLAALDYLTGASAVRDRVDPTRLAVMGHSMGGGGSLQASRQRPQLKAAVPLTPWSNDKDFSADVVPTLIIGAELDDTAPVAEHAEPFFESIAAARKAYLELNDAEHRAPIRTNETIGTYSVAWLKRFVDDDTRYEQFLCPPPAPSAAIEEFRGTCPSS [TEP106]	< 3
VEIGPNPTSTLLNGNGPFSVSSSSVSSWVSGFGGGTIYYPTASGQYGVIAVCPGYTGTSSSISWFARRLATHGFVTIAMNTNSRFDFPDSRATQLAAALNYLLNSSSSTIRSRIRTADRGVAGHSMGGGGTLRASERDSNLKVGIPLTPWHTDKTWGSLSVPQMIFGADGDTVAPASSHARTFYNSIPSSTKKAYALLNNASHFTPNSTDERIGRYGVAFAKRFVDGDTRYEPFLCGAEHSTYATSWKFDTYLSTCPYGGGSEPEPDYPWWYWWR [ESM162]	< 3
QTNPYQKGPAPTVANLEAARGSFAVSSTSISSLSATGFGGGSLHYPTAAGTYGLIAVAPPYLAQSSSIAWLGPRLASHGFVVVMIDVNSTLDFPESRSRQQLAAIDYAIAQNARRTSPIYGKVDTTRRGVTGHSMGGGASILTARNSPANIKGAFPLTPWSSDKNFSNLQVPTGYLACQDDTVAGNADHSLNFYNRMPASTPKGYYELRGETHFCPQSTTNNPVIGKYLVAWMKRFVDNDTRFSPFLSGALPNADLSSGRFSVLRTSGL [DP075]	< 3
GQAAVPVAVAGTSAFAKGPDPTEQSIQAQRGPFATAQRTVPSEAGRAFNRGTVHYPTDTSHGTYGAVVVSPGFFGPEFSVAWYGSTLASHGFVVLTLETNFLFDQPDARATQLLAGLDWLAARSPVKDRVDPNRLAVMGHSMGGGGTLIAASRNPALKAAIPLTPWNTSPDFSTVTVPTLVLGTDNDTVAPVARHADPMYASLRDKPDEGYVKLRGDHFTPIRYTAAATRFIVPWLKRYVDEDTRYSRFLCPLPAPDATLVSFELRCPV [DP040]	< 3
ADNPYERGPDPTERSIEAARGPFGVSTERVGSLGVSDFGGATIYHPTDRSQTYGAIAISPGFTAGWTSLSWLGERLASQGFVVIGIDTITRLDQPGSRGRQLLAALDYATTRSNARALIDAQRLAVAGHSMGGGGTLEAAAERPSLKAAIPLAPWNLDKSWAEVRTPTLIIGGESDNIAAVNTHSIPFYNSLSNAREKAYMEIDNGTHFFPNTANTLMAKYMISWMKRYIDDDTRYEQFLCPPPDDRGISEYRHTCPGS [DP088]	< 3

====

assay: PET hydrolysis, aromatic products released after 48 h (umol product/mg enzyme); higher = more PET depolymerization activity; details: substrate: cryPow; 60 °C; pH 8.5
The following sequences are shown together with reported PET hydrolysis values.

INPUT_SEQUENCE	PET hydrolysis
ADNPYQRGPAPTNTSIEATRGTYAVSTKTISALSARGFGGGTIYYPTSTADGTFGVVAISPGYTASQSTIAWLGPRLASFGFVVVTIDTTTRYDQPTSRGSQLLAALDQAIGDSTVGPRIDATRQAVVGHSMGGGGTLEAAKTRRSLEAAVPLTGWNLDKTWPEVEAATLVIGAQNDTVAPTTSHSIPFYNSLSGAERKAYLELRGASHFAPVTSNTTIAKHTLSWLKRYVDDDTRYEQFISPGPSTAIGSPVSDYRVN [DP022]	< 3
QYQKGPDPTTSSLERAGSFATRTISVSSLAASGFGGGRIYYPTASGSYGVIAVSPGYTGTASTMYFWGERLSSHGFVVIVIETNTLLDQPGSRANQLMAALNYTVSQGNSRTSALYGKVDGNRRGVAGHSMGGGGTLIAAADNASLKAAVPMAPWNLSSLSFRGIRVPTMIFGCQSDAIAPVNTHAVPFYNAIPSSTKKGYVEMRLDDHFCVMNGGGHYETLGKLGISWFKRFIDEDTRYSKFLCGTEYNATVRSTEVSDSKNNCPY [DP039]	< 3
QYQKGPDPTVAGLERDGTFAIRTTTVSRLSASGFGGGTIYYPTATGSYGVVAVSPGFTAYQSSISWIGSRLASHGFVVITIDTNTTSDQPDSRARQLKAALDKVVSLASSRTNVLYGKVDSSRLAVAGHSMGGGGSLAAARDYPSLKASVPLAPWHTTKSFSTVRVPTLIVGADGDTVASVTSHSIPFYTSIPSSTPKGYLELNNEDHFFPQDSGEYGLVGKYMISWFKRFVDSDTRYSPFLCGAPHQTQIANTLRVSDSRTNCPY [DP038]	< 3

====

assay: PET hydrolysis, aromatic products released after 48 h (umol product/mg enzyme); higher = more PET depolymerization activity; conditions: substrate: cryPow; 40 °C; pH 8.5

INPUT_SEQUENCE	PET hydrolysis
AASPYERGPDPTEQTITAERGPFQVATATVPANSASGFNRGTIYYPTDTSQGTFGAVAIIPGFIEPESTMSWYGPRLASQGFVVFTLEPFSVLNFPDDRANQLLAALDYLTGSSSVRSRVDASRLAVMGHSMGGGGTLRAAEMRPSLQAAIPLAPWHLHGDWRNVRVPTMIQAADNDFIAGVGNHAQPFYQNLTNAPEKAYLLFENYGHMSWISANTPIAKYSIAWLKRYVDDDTRYSKFLCPAPGAPSSTFQEYRHTCPD [DP044]	< 3
ATNPYQRGPAPTAESISAERGSFAVADSAVSADSVSGFGGGTVYYPTDTSAGKFGAVAIAPGFTANEWSLAWLGPRLASHGFVVFIIDTITTGDQPAQRGDELRAALSYLTTSSPVRDRVDPARLGVMGHSMGGGGALQAAEDDPSIRAVIPMTPYDLDSPSPKVTAPTLIIGAQDDTIAPVAYHARPFYESLTSARAKEYIELRNQSHFAPNYPNATIASASIAWLKRYIDDDQRYQPFACPAQVGSWLISDFRSAC [DP034]	< 3
ATTSYQRGPNPTEQSVRAANGPFAYSQFAIPDAEATGFGEGTIYYPNNTSVGTFGGVVIAPGFNADQNSTVWLGKRLASHGFVAVTITTHELNDQPYERGKQILAALDYLTGQSPAFVRSRLDPARLAAVGHSMGGGGTLFAAAQRPSLKAIVPLAPWALAKNWSNVQVPTMILSGAQDASAPPAEHAEKFYASLTSAPEKAYAKLDVNHVRFAWEHPLIGKLVVSWLKRFVDEDTRYTQFLCPTATGAVLLEYRATCPLG [DP026]	< 3
